tested on: Italian ryegrass; experiment: Test A postemergence; assay type: in vivo, Lolium multiflorum; conditions: 31 g ai/ha, 0 to 100 scale, 0 no effect, 100 complete control
Source text: […]
I'd be grateful if you could share measured Plant response rating, Ryegrass, Italian for these entries.

-- ask Give the reported value of Plant response rating, Ryegrass, Italian for this record: `FCc1cccc(Oc2ncc(F)cn2)c1-n1cc(C(F)(F)F)cn1`
-- reply 20

-- ask Give the reported value of Plant response rating, Ryegrass, Italian for this record: `CC(C)Oc1cnn(-c2c(Br)cccc2Oc2ncc(F)cn2)c1`
-- reply 0

-- ask Give the reported value of Plant response rating, Ryegrass, Italian for this record: `Fc1cnc(Oc2cccc(Cl)c2-n2cc(OCC(F)(F)F)cn2)nc1`
-- reply 0

-- ask Give the reported value of Plant response rating, Ryegrass, Italian for this record: `FCc1cccc(Oc2ncc(Br)cn2)c1-n1cc(C(F)(F)F)cn1`
-- reply 0

-- ask Give the reported value of Plant response rating, Ryegrass, Italian for this record: `FCc1cccc(Oc2ncc(Cl)cn2)c1-n1cc(Cl)cn1`
-- reply 0

-- ask Give the reported value of Plant response rating, Ryegrass, Italian for this record: `Clc1cnc(Oc2ccccc2-n2cccc2)nc1`
-- reply 0

-- ask Give the reported value of Plant response rating, Ryegrass, Italian for this record: `N#Cc1cnn(-c2c(CF)cccc2Oc2ncc(F)cn2)c1`
-- reply 0

-- ask Give the reported value of Plant response rating, Ryegrass, Italian for this record: `CC(C)Oc1cnn(-c2c(Cl)cccc2Oc2ncc(Cl)cn2)c1`
-- reply 0

-- ask Give the reported value of Plant response rating, Ryegrass, Italian for this record: `Fc1cccc(Oc2ncc(Cl)cn2)c1-n1cc(-c2ccsc2)nn1`
-- reply 30

-- ask Give the reported value of Plant response rating, Ryegrass, Italian for this record: `CC(C)Cc1cn(-c2c(F)cccc2Oc2ncc(Cl)cn2)nn1`
-- reply 0

-- ask Give the reported value of Plant response rating, Ryegrass, Italian for this record: `FCc1cccc(Oc2ncc(Cl)cn2)c1-n1cc(C(F)(F)F)cn1`
-- reply 30

Data provenance is patent US9695155B2.
